# system: recombinant human TDP2 (Homo sapiens, UniProt O95551)
# Sequence (O95551 whole entry): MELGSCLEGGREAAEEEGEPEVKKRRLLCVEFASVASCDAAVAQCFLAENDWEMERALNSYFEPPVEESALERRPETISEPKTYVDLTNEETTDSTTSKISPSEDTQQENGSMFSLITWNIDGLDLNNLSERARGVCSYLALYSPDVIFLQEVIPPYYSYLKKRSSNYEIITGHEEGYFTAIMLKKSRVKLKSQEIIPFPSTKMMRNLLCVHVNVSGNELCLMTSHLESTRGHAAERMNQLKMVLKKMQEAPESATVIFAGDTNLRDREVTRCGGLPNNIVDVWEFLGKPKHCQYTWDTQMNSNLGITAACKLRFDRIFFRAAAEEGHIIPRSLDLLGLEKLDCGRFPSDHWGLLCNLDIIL
# measurement_description: Gel-based TDP2 activity assay (removal of 5'-tyrosine from oligonucleotide, PAGE)
# Format: biochemical
# assay_conditions: inhibitor 1 mM; residual enzyme activity; read-out: TDP2 (Inhibitor Concentration 1 mM), residual activity of TDP2
Catalogue of remaining activity at 1000 µM readings, one per entry.
test_readout: remaining activity at 1000 µM (%)

input_smiles	system	unit_tag	comparison_sign	measured_value
C[C@H](CCC(=O)NCCc1c[nH]c2ccccc12)[C@H]1CC[C@H]2[C@@H]3CC[C@@H]4C[C@H](OCc5ccccc5)CC[C@]4(C)[C@H]3C[C@H](O)[C@]12C	recombinant human TDP2 (Homo sapiens, UniProt O95551)	%	=	28
C[C@H](CCC(=O)Nc1ccc(Br)cc1)[C@H]1CC[C@H]2[C@@H]3CC[C@@H]4C[C@H](OCc5ccccc5)CC[C@]4(C)[C@H]3CC(=O)[C@]12C	recombinant human TDP2 (Homo sapiens, UniProt O95551)	%	=	39
C[C@H](CCC(=O)N/N=C/c1ccc(Br)cc1)[C@H]1CC[C@H]2[C@@H]3CC[C@@H]4C[C@H](OCc5ccccc5)CC[C@]4(C)[C@H]3C[C@H](OCc3ccccc3)[C@]12C	recombinant human TDP2 (Homo sapiens, UniProt O95551)	%	<	50
C[C@H](CCC(=O)Nc1ccc(Br)cc1)[C@H]1CC[C@H]2[C@@H]3CC[C@@H]4C[C@H](OCc5ccccc5)CC[C@]4(C)[C@H]3C[C@H](OCc3ccccc3)[C@]12C	recombinant human TDP2 (Homo sapiens, UniProt O95551)	%	=	44

* * *

Catalogue of CC50 at 72 h readings, one per entry.
# measurement_description: Intrinsic cytotoxicity, EZ4U assay, HeLa
# assay_conditions: human, HeLa cells

compound	CC50 at 72 h
C[C@H](CCC(=O)NCCc1c[nH]c2ccccc12)[C@H]1CC[C@H]2[C@@H]3CC[C@@H]4C[C@H](OCc5ccccc5)CC[C@]4(C)[C@H]3C[C@H](OCc3ccccc3)[C@]12C	> 100 µM
C[C@H](CCC(=O)Nc1ccc(Br)cc1)[C@H]1CC[C@H]2[C@@H]3CC[C@@H]4C[C@H](OCc5ccccc5)CC[C@]4(C)[C@H]3C[C@H](O)[C@]12C	> 100 µM
C[C@H](CCC(=O)NCCc1c[nH]c2ccccc12)[C@H]1CC[C@H]2[C@@H]3CC[C@@H]4C[C@H](OCc5ccccc5)CC[C@]4(C)[C@H]3C[C@H](O)[C@]12C	> 100 µM
COc1cc([C@@H]2c3cc4c(cc3[C@@H](O[C@@H]3O[C@@H]5CO[C@@H](C)O[C@H]5[C@H](O)[C@H]3O)[C@H]3COC(=O)[C@H]23)OCO4)cc(OC)c1O [Etoposide, reference compound]	6.2 µM
C[C@H](CCC(=O)NCCCc1cc(C(C)(C)C)c(O)c(C(C)(C)C)c1)[C@H]1CC[C@H]2[C@@H]3CC[C@@H]4C[C@H](OCc5ccccc5)CC[C@]4(C)[C@H]3C[C@H](OCc3ccccc3)[C@]12C	> 100 µM

* * *

# system: TDP1 (Homo sapiens, UniProt Q9NUW8)
# Sequence (Q9NUW8 whole entry): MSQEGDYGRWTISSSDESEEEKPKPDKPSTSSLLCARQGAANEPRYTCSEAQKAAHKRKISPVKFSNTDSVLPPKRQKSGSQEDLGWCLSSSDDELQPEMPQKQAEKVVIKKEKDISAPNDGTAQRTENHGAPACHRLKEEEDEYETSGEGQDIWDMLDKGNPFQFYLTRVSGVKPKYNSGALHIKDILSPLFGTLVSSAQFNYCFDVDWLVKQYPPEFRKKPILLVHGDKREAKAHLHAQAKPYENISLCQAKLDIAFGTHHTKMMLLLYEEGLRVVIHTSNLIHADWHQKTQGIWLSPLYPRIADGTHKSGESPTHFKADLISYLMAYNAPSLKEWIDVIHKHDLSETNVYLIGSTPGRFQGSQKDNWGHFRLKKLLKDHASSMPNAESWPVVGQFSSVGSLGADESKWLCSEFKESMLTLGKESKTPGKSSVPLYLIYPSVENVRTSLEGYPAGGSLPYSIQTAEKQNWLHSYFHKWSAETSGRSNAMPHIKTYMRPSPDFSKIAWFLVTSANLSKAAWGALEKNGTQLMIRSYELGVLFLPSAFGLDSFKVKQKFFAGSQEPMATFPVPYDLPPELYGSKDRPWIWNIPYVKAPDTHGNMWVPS
# measurement_description: Real-time fluorescence detection of TDP1 activity (FAM/BHQ1 oligonucleotide biosensor)
# Type: biochemical
# assay_conditions: concentration that inhibits the activity of the enzyme by 50%; read-out: TDP1 IC50

molecule	IC50 / µM
C[C@H](CCC(=O)O/N=C(\N)c1ccc(Br)cc1)[C@H]1CC[C@H]2[C@@H]3CC[C@@H]4C[C@H](OCc5ccccc5)CC[C@]4(C)[C@H]3C[C@H](OCc3ccccc3)[C@]12C [Compound 14]	0.33
C[C@H](CCC(=O)NCCc1c[nH]c2ccccc12)[C@H]1CC[C@H]2[C@@H]3CC[C@@H]4C[C@H](OCc5ccccc5)CC[C@]4(C)[C@H]3C[C@H](OCc3ccccc3)[C@]12C [Compound 4]	0.75
C[C@H](CCc1nnc(-c2ccc(Br)cc2)o1)[C@H]1CC[C@H]2[C@@H]3CC[C@@H]4C[C@H](OCc5ccccc5)CC[C@]4(C)[C@H]3C[C@H](OCc3ccccc3)[C@]12C [Compound 19]	1.01
C[C@H](CCc1nc(Cc2ccc(Br)cc2)no1)[C@H]1CC[C@H]2[C@@H]3CC[C@@H]4C[C@H](OCc5ccccc5)CC[C@]4(C)[C@H]3C[C@H](OCc3ccccc3)[C@]12C [Compound 13]	0.53
C[C@H](CCC(=O)N/N=C/c1ccc(Br)cc1)[C@H]1CC[C@H]2[C@@H]3CC[C@@H]4C[C@H](OCc5ccccc5)CC[C@]4(C)[C@H]3C[C@H](OCc3ccccc3)[C@]12C [Compound 18]	0.51

* * *

# measurement_description: Intrinsic cytotoxicity, EZ4U assay, HEK293A
# assay_conditions: human, HEK293A cells

compound	CC50 at 72 h
C[C@H](CCC(=O)Nc1ccc(Br)cc1)[C@H]1CC[C@H]2[C@@H]3CC[C@@H]4C[C@H](OCc5ccccc5)CC[C@]4(C)[C@H]3CC(=O)[C@]12C	> 100 µM
C[C@H](CCC(=O)NCCCc1cc(C(C)(C)C)c(O)c(C(C)(C)C)c1)[C@H]1CC[C@H]2[C@@H]3CC[C@@H]4C[C@H](OCc5ccccc5)CC[C@]4(C)[C@H]3C[C@H](OCc3ccccc3)[C@]12C	> 100 µM
COc1cc([C@@H]2c3cc4c(cc3[C@@H](O[C@@H]3O[C@@H]5CO[C@@H](C)O[C@H]5[C@H](O)[C@H]3O)[C@H]3COC(=O)[C@H]23)OCO4)cc(OC)c1O [Etoposide, reference compound]	5.9 µM
C[C@H](CCC(=O)NCCc1c[nH]c2ccccc12)[C@H]1CC[C@H]2[C@@H]3CC[C@@H]4C[C@H](OCc5ccccc5)CC[C@]4(C)[C@H]3C[C@H](O)[C@]12C	> 100 µM
C[C@H](CCC(=O)Nc1ccc(Br)cc1)[C@H]1CC[C@H]2[C@@H]3CC[C@@H]4C[C@H](OCc5ccccc5)CC[C@]4(C)[C@H]3C[C@H](O)[C@]12C	> 100 µM
CC[C@@]1(O)C(=O)OCc2c1cc1n(c2=O)Cc2cc3c(CN(C)C)c(O)ccc3nc2-1 [Topotecan, reference compound]	0.33 µM
C[C@H](CCC(=O)NCCc1c[nH]c2ccccc12)[C@H]1CC[C@H]2[C@@H]3CC[C@@H]4C[C@H](OCc5ccccc5)CC[C@]4(C)[C@H]3CC(=O)[C@]12C	> 100 µM
C[C@H](CCC(=O)NCCc1c[nH]c2ccccc12)[C@H]1CC[C@H]2[C@@H]3CC[C@@H]4C[C@H](OCc5ccccc5)CC[C@]4(C)[C@H]3C[C@H](OCc3ccccc3)[C@]12C	> 100 µM

* * *

# system: recombinant human TDP2 (Homo sapiens)
# measurement_description: Gel-based TDP2 activity assay (removal of 5'-tyrosine from oligonucleotide, PAGE)
# Type: biochemical
# Design: key: TDP2 active (+); -: inactive (−)
# assay_conditions: c 200 µM (Table S3 head)
test_readout: Tdp2 activity, c 200 µM

input_smiles	system	measured_value
C[C@H](CCC(=O)O)[C@H]1CC[C@H]2[C@@H]3CC[C@@H]4C[C@H](OCc5ccccc5)CC[C@]4(C)[C@H]3C[C@H](OCc3ccccc3)[C@]12C	recombinant human TDP2 (Homo sapiens)	+
C[C@H](CCc1nc(-c2ccc(Br)cc2)no1)[C@H]1CC[C@H]2[C@@H]3CC[C@@H]4C[C@H](OCc5ccccc5)CC[C@]4(C)[C@H]3C[C@H](OCc3ccccc3)[C@]12C	recombinant human TDP2 (Homo sapiens)	-
C[C@H](CCC(=O)Nc1ccc(Br)cc1)[C@H]1CC[C@H]2[C@@H]3CC[C@@H]4C[C@H](OCc5ccccc5)CC[C@]4(C)[C@H]3C[C@H](O)[C@]12C	recombinant human TDP2 (Homo sapiens)	+
C[C@H](CCC(=O)O)[C@H]1CC[C@H]2[C@@H]3CC[C@@H]4C[C@H](OCc5ccccc5)CC[C@]4(C)[C@H]3C[C@H](O)[C@]12C	recombinant human TDP2 (Homo sapiens)	+
C[C@H](CCC(=O)NCCc1c[nH]c2ccccc12)[C@H]1CC[C@H]2[C@@H]3CC[C@@H]4C[C@H](OCc5ccccc5)CC[C@]4(C)[C@H]3C[C@H](O)[C@]12C	recombinant human TDP2 (Homo sapiens)	+
C[C@H](CCC(=O)N/N=C/c1ccc(Br)cc1)[C@H]1CC[C@H]2[C@@H]3CC[C@@H]4C[C@H](OCc5ccccc5)CC[C@]4(C)[C@H]3C[C@H](OCc3ccccc3)[C@]12C	recombinant human TDP2 (Homo sapiens)	+
C[C@H](CCC(=O)NCCc1c[nH]c2ccccc12)[C@H]1CC[C@H]2[C@@H]3CC[C@@H]4C[C@H](OCc5ccccc5)CC[C@]4(C)[C@H]3CC(=O)[C@]12C	recombinant human TDP2 (Homo sapiens)	+
C[C@H](CCC(=O)Nc1ccc(Br)cc1)[C@H]1CC[C@H]2[C@@H]3CC[C@@H]4C[C@H](OCc5ccccc5)CC[C@]4(C)[C@H]3CC(=O)[C@]12C	recombinant human TDP2 (Homo sapiens)	+
C[C@H](CCC(=O)NCCCc1cc(C(C)(C)C)c(O)c(C(C)(C)C)c1)[C@H]1CC[C@H]2[C@@H]3CC[C@@H]4C[C@H](OCc5ccccc5)CC[C@]4(C)[C@H]3C[C@H](OCc3ccccc3)[C@]12C	recombinant human TDP2 (Homo sapiens)	+
C[C@H](CCC(=O)O/N=C(\N)Cc1ccc(Br)cc1)[C@H]1CC[C@H]2[C@@H]3CC[C@@H]4C[C@H](OCc5ccccc5)CC[C@]4(C)[C@H]3C[C@H](OCc3ccccc3)[C@]12C	recombinant human TDP2 (Homo sapiens)	+
